- Assay Explanation: Cytotoxicity against human HeLa cells measured at 48 hrs post dose
- Assay type: cell-based
Exercise: for every item that follows, state its recorded CC50 at 48 h.
One number for each entry, in µM.

INSERT INTO measurements (molecule, observed_measurement) VALUES
  ('CCC(CC)O[C@@H]1C=C(C(=O)O)C[C@H](NC(=O)OC(C)(C)C)[C@H]1NC(C)=O', 750);

Parameter requested: CC50 at 48 h. Apply to each item below.
1. CCC(CC)O[C@@H]1C=C(C(=O)Nc2ccccc2)C[C@H](N)[C@H]1NC(C)=O
2. CCC(CC)O[C@@H]1C=C(C(=O)Nc2ccccc2OC)C[C@H](N)[C@H]1NC(C)=O

[375, 150]

---

- Assay Explanation: Cytotoxicity against human HeLa cells measured at 24 hrs post dose
- Assay type: cell-based
Experimental Endpoint: CC50 at 24 h (µM)
Numbers only, in µM.

Worked cases, CC50 at 24 h given:
INSERT INTO assay_data (molecule, experimental_endpoint, observed_measurement) VALUES
  ('CCC(CC)O[C@@H]1C=C(C(=O)O)C[C@H](NC(=O)OC(C)(C)C)[C@H]1NC(C)=O', 'CC50 at 24 h', 750),
  ('CCC(CC)O[C@@H]1C=C(C(=O)Nc2ccccc2OC)C[C@H](N)[C@H]1NC(C)=O', 'CC50 at 24 h', 155);

Turning to the following compound.
Return reported CC50 at 24 h. Input compound: CCC(CC)O[C@@H]1C=C(C(=O)Nc2ccccc2)C[C@H](N)[C@H]1NC(C)=O
375

---

- Assay Explanation: Cytotoxicity against human HeLa cells measured at 48 hrs post dose
- Type: cell-based
Experimental Endpoint: CC50 at 48 h

Worked cases, CC50 at 48 h given:
INSERT INTO measurements (compound, observed_measurement) VALUES
  ('CCC(CC)O[C@@H]1C=C(C(=O)O)C[C@H](N)[C@H]1NC(C)=O [OSELTAMIVIR CARBOXYLATE]', '> 1000 µM'),
  ('CCC(CC)O[C@@H]1C=C(C(=O)Nc2ccccc2OC)C[C@H](NC(=O)OC(C)(C)C)[C@H]1NC(C)=O', '> 1000 µM');

Turning to the following compound.
Return reported CC50 at 48 h. Input compound: CCC(CC)O[C@@H]1C=C(C(=O)Nc2ccccc2)C[C@H](NC(=O)OC(C)(C)C)[C@H]1NC(C)=O
> 1000 µM

---

- Assay Explanation: Cytotoxicity against human HeLa cells measured at 24 hrs post dose
- Format: cell-based
Exercise: for every item that follows, state its recorded CC50 at 24 h.

INSERT INTO results (compound, observed_measurement) VALUES
  ('CCC(CC)O[C@@H]1C=C(C(=O)O)C[C@H](N)[C@H]1NC(C)=O [OSELTAMIVIR CARBOXYLATE]', '> 1000 µM'),
  ('CCC(CC)O[C@@H]1C=C(C(=O)Nc2ccccc2)C[C@H](NC(=O)OC(C)(C)C)[C@H]1NC(C)=O', '> 1000 µM');

Return reported CC50 at 24 h. Input compound: CCC(CC)O[C@@H]1C=C(C(=O)Nc2ccccc2OC)C[C@H](NC(=O)OC(C)(C)C)[C@H]1NC(C)=O
> 1000 µM
